Cited source: the RNAGym collection of RNA variant scans (doi:10.1101/gr.219683.116)

B1: mRNA-splicing (parent)
chain: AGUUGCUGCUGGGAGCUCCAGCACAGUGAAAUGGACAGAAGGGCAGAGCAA

variants of: B1; assay: exon inclusion enrichment index; higher = more inclusion; WT1 exon 5 minigene, HEK293
measured-attribute: exon inclusion enrichment index

[[record]]
mutant_code = "A40G G41C"
measured_attribute = "exon inclusion enrichment index"
reported_result = 0.927

[[record]]
mutant_code = "G5U C6A U7A G8U C9A"
measured_attribute = "exon inclusion enrichment index"
reported_result = 0.0741

[[record]]
mutant_code = "G5U G8U C9U U17A C18G"
measured_attribute = "exon inclusion enrichment index"
reported_result = 0.0888

[[record]]
mutant_code = "C6A U7C C9U U10C"
measured_attribute = "exon inclusion enrichment index"
reported_result = 2.52

[[record]]
mutant_code = "G5A U7C G8A U10C A37G"
measured_attribute = "exon inclusion enrichment index"
reported_result = 3.3

[[record]]
mutant_code = "A47C G48U"
measured_attribute = "exon inclusion enrichment index"
reported_result = 0.173

[[record]]
mutant_code = "G5A C6G U7G C9A G28C A29G"
measured_attribute = "exon inclusion enrichment index"
reported_result = 0.0115

[[record]]
mutant_code = "G5C C6U G8C C9U U10C A47G G48C"
measured_attribute = "exon inclusion enrichment index"
reported_result = 0.706

[[record]]
mutant_code = "G5A C6G U7G C9A G38C A39C"
measured_attribute = "exon inclusion enrichment index"
reported_result = 0.00466

[[record]]
mutant_code = "G5C C6G U10C"
measured_attribute = "exon inclusion enrichment index"
reported_result = 2.11

[[record]]
mutant_code = "G5C C6U G8C C9U U10C A35C"
measured_attribute = "exon inclusion enrichment index"
reported_result = 0.541

